targetSystem: Lethal(3)malignant brain tumor-like protein 1 (Homo sapiens) (UniProt Q9Y468)
Sequence (Q9Y468 whole entry, looked up): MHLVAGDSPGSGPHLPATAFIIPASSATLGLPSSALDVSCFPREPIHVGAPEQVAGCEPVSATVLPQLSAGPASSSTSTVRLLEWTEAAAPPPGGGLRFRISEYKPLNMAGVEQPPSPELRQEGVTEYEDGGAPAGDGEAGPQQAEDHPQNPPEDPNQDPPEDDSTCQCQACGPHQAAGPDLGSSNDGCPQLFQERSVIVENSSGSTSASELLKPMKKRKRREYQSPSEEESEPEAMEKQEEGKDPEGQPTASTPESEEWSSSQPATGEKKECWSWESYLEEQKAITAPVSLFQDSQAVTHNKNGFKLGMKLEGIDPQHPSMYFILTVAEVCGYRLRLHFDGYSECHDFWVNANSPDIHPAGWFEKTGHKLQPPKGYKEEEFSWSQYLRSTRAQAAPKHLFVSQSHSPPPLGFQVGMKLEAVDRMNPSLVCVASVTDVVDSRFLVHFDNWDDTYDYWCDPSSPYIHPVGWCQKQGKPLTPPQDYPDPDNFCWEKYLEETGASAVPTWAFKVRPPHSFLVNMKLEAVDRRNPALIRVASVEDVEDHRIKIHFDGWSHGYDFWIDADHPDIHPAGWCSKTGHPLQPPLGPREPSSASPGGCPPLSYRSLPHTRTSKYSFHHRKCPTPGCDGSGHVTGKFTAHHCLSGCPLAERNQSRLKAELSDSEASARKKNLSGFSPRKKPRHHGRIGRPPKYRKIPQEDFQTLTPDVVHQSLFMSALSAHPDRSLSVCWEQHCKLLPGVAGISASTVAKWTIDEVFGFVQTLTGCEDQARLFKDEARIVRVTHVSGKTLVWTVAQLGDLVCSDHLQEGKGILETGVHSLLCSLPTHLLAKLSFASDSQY
assayComment: qHTS Assay for the Inhibitors of L3MBTL1; also: nearly all actives have a fitted effect of over 60% in size
details: AlphaScreen L3MBTL1–H3K9me1 peptide binding; series mostly up to 57.1 µM
Screen size: about 230,000 compounds; about 1,500 (0.65%) were called active. Another 3% or so got no clear call; they are omitted. Calls follow the shape of the dose curve; as a rule, active = well fitted inhibition curve with a large enough effect; inconclusive = small, poorly fitted or top-dose-only effect; inactive = no such curve, though single readings can be large or run the other way. Many of the other results were omitted from the sample, so actives are more common in it than they were.
Would you mind answering with one of these outcomes? active, inactive

Incoming: What did the test return for O=C(Nc1ncccc1O)c1ccc(C(=O)c2ccccc2)cc1 ?
Outgoing: inactive

Incoming: Given COc1ccccc1C(CNC(=O)c1cccc(S(=O)(=O)Nc2ccc(F)cc2)c1)N(C)C (stereo not given) , state the outcome it received in this test.
Outgoing: inactive

Incoming: Dear colleague, could you share the recorded outcome for O=C(N/N=C/c1ccco1)c1ccc(C(=O)N/N=C/c2ccco2)o1 when you have a moment?
Outgoing: inactive

Incoming: # lookup: test call for COc1ccccc1Nc1nc(N)nc(CSC(=S)N2CCOCC2)n1
Outgoing: inactive

Incoming: What classification did CC[C@@]1(C(=O)OC)N[C@H](CN(C)C(C)=O)[C@@H]2C(=O)N(C)C(=O)[C@@H]21 end up with in this test?
Outgoing: inactive

Incoming: Write down the call the test reported for this molecule. Item: COCC(=O)N1CCCC(C(=O)c2ccc(C(F)(F)F)cc2)C1 (stereo not given)
Outgoing: inactive

Incoming: Could you check what this test reported for O=C(COC(=O)COc1cc(Cl)c(Cl)cc1Cl)NC1CC1 ?
Outgoing: inactive

Incoming: Please indicate how the test categorized CCOc1ccc(NC(=O)c2ccc(NC(=O)COC(=O)c3ccc(NC(=O)CC#N)cc3)cc2)cc1 .
Outgoing: active

Incoming: Test call for this molecule, please: CN(CC(=O)NC1CCN(Cc2ccccc2)CC1)S(=O)(=O)c1ccc(Cl)s1
Outgoing: inactive

Incoming: Please indicate how the test categorized Oc1ccc(N=Nc2nccs2)c(O)c1 .
Outgoing: active

----------
targetSystem: Lethal(3)malignant brain tumor-like protein 1 (Homo sapiens) (UniProt Q9Y468)
assayComment: qHTS Assay for the Inhibitors of L3MBTL1; also: nearly all actives have a fitted effect of over 60% in size
details: AlphaScreen L3MBTL1–H3K9me1 peptide binding; series mostly up to 57.1 µM
Among all 230,000 compounds or so, about 1,500 (0.65%) were called active. Another 3% or so got no clear call; they are omitted. Calls come from the whole dose curve; as a rule, active = well fitted inhibition curve with a large enough effect; inconclusive = small, poorly fitted or top-dose-only effect; inactive = no such curve, though single readings can be large or run the other way. The list comes from a sample in which actives are over-represented; it also holds close analogues and randomly drawn compounds.
Pick one: Yes = active, No = inactive

Incoming: I would be grateful if you could indicate the recorded call for CCOc1ccccc1OCC(=O)Nc1ccccc1C(=O)NC1CC1 .
Outgoing: No

Incoming: Query: recorded result category for O=C(OCC(=O)N1CCCCCC1)c1cnc(Cl)c(Cl)c1 in this test
Outgoing: No

Incoming: Short answer needed: outcome of this test for O=[N+]([O-])c1ccc(C=Nc2ccc(Cl)cc2Cl)s1 ?
Outgoing: Yes

Incoming: For CCOC(=O)c1ccccc1NS(=O)(=O)c1c(C)nc2sccn2c1=O , what call appears in the results of this test?
Outgoing: No

Incoming: I'd appreciate the recorded outcome for CCOc1ccc(NC(=O)CCC(=O)N/N=C/c2ccc([N+](=O)[O-])s2)cc1 from this test.
Outgoing: No

Incoming: Outcome? CC1CN(C(=O)c2ccc([N+](=O)[O-])s2)CC(C)O1 (centres undefined)
Outgoing: No

Incoming: Which outcome was assigned to N#CCN(C(=O)COC(=O)C1CC2CCCC(C1)C2=O)c1ccccc1 (centres undefined) in this test?
Outgoing: No

Incoming: I'd appreciate the recorded outcome for COc1ccc2c(CC(=O)NNC(=O)c3ccccc3F)coc2c1 from this test.
Outgoing: No

Incoming: // outcome(item) with item = CC(=O)c1c(C)[nH]c(C(=O)COc2ccc3c(C)cc(=O)oc3c2)c1C
Outgoing: No

----------
targetSystem: Lethal(3)malignant brain tumor-like protein 1 (Homo sapiens) (UniProt Q9Y468)
assayComment: qHTS Assay for the Inhibitors of L3MBTL1; also: nearly all actives have a fitted effect of over 60% in size
details: AlphaScreen L3MBTL1–H3K9me1 peptide binding; series mostly up to 57.1 µM
In all, about 230,000 compounds went through this assay and about 1,500 (0.65%) were called active. Not shown: some 3% with an inconclusive outcome. Calls come from the whole dose curve; as a rule, active = well fitted inhibition curve with a large enough effect; inconclusive = small, poorly fitted or top-dose-only effect; inactive = no such curve, though single readings can be large or run the other way. Only a selection was taken, and actives are over-represented in it overall.
Select the correct class. Options are active, inactive and nothing else.

Incoming: Assay result, entry Cc1cc([N+](=O)[O-])ccc1NC1CCCC1 — outcome?
Outgoing: inactive

Incoming: What did this assay record as the result for O=C1c2ccccc2C(=O)c2c1cccc2N1CCN(Cc2ccccc2)CC1 ?
Outgoing: active

Incoming: Tell me the assay call for Cc1ccc(C)n1C(Cc1ccccc1)C(=O)O (stereo not drawn) please.
Outgoing: active

Incoming: Any idea what this test logged for Cn1ccc(=Nc2ccc(NC(=O)c3ccc(N=c4ccn(C)c5ccc([N+](=O)[O-])cc45)cc3)cc2)cc1 ?
Outgoing: active

Incoming: Can you look up the reported call for Clc1ccccc1CSc1nnc(-c2ccco2)c(-c2ccco2)n1 for me?
Outgoing: active

Incoming: // param item: CC(Cc1ccccc1)C(=O)N(C)Cc1ccccc1 (stereo not drawn) ; yields the recorded call
Outgoing: inactive

Incoming: Tell me the recorded outcome of this test for O=C1CCCC(O)=C1N=Nc1ccc2ncsc2c1 .
Outgoing: active

Incoming: // outcome(item) with item = O=C(CC1N=C2c3ccccc3N=C(SCc3ccccc3Cl)N2C1=O)NCc1ccco1 (stereo not drawn)
Outgoing: inactive

Incoming: Status in this test for c1ccc(CSc2nnc(-c3ccco3)c(-c3ccco3)n2)cc1 ?
Outgoing: active

Incoming: Per the records of this test, what outcome belongs to Cc1c(NS(=O)(=O)c2ccc(NC3CCCC3)c([N+](=O)[O-])c2)c(=O)n(-c2ccccc2)n1C ?
Outgoing: inactive

Incoming: Please share the test call associated with CCOC(=O)c1sc2nc(CSc3ccccc3)[nH]c(=O)c2c1C .
Outgoing: inactive

Incoming: Hey, what did the test say about CC[C@]12c3[nH]c4ccc(Cl)cc4c3CCN1C(=O)[C@@H](CC(=O)NCCN1CCOCC1)C[C@@H]2C(=O)N1CCN(C(=O)C2CC2)CC1 ?
Outgoing: inactive

Incoming: Could you please tell me the result logged for CC(=O)N1c2ccc(S(=O)(=O)N3CCCC(C(=O)Nc4ccc(C)cc4C)C3)cc2CC1C (stereo not drawn) in this assay?
Outgoing: inactive

Incoming: Given COC(OC)c1ccnc(SCc2ccccc2Cl)n1 , state the outcome it received in this test.
Outgoing: inactive

Incoming: // return assay outcome for Cn1nnnc1SCC(=O)Nc1cccc(S(=O)(=O)N2CCCCC2)c1
Outgoing: inactive

Incoming: How was Cn1cc[n+](C)c1COc1ccc(C=O)cc1 classified in this test?
Outgoing: inactive

Incoming: Outcome logged for O=C(NNS(=O)(=O)c1ccc(F)cc1)c1ccc([N+](=O)[O-])cc1Cl in this assay:
Outgoing: inactive

Incoming: Given O=C1c2ccccc2C(=O)c2c1cccc2N1CCN(CCO)CC1 , state the outcome it received in this test.
Outgoing: inactive

----------
targetSystem: Lethal(3)malignant brain tumor-like protein 1 (Homo sapiens) (UniProt Q9Y468)
assayComment: qHTS Assay for the Inhibitors of L3MBTL1; also: nearly all actives have a fitted effect of over 60% in size
details: AlphaScreen L3MBTL1–H3K9me1 peptide binding; series mostly up to 57.1 µM
The campaign covered roughly 230,000 compounds. About 1,500 (0.65%) were called active. Not shown: some 3% with an inconclusive outcome. Calls come from the whole dose curve; as a rule, active = well fitted inhibition curve with a large enough effect; inconclusive = small, poorly fitted or top-dose-only effect; inactive = no such curve, though single readings can be large or run the other way. Shown is part of a subset that was picked to be rich in actives.
Field 'call' accepts active, inactive

Incoming: Hi, sorry to bother you, what did the test record for Cc1c(OC(C)C(=O)NCC2CCC(C(=O)O)CC2)ccc2c1oc(=O)c1ccccc12 (centres undefined) ?
Outgoing: inactive

Incoming: For COc1ccc(OCCCC(=O)Nc2cccc(S(=O)(=O)N3CCCCCC3)c2)cc1 , what call appears in the results of this test?
Outgoing: inactive

Incoming: Please let me know the test result on file for Cc1cc(C=O)c(C)n1-c1ccc(NC2CCCCC2)c([N+](=O)[O-])c1 .
Outgoing: active

Incoming: Any idea what this test logged for COc1cc(CN2CCC(C(N)=O)CC2)ccc1OCc1ccccc1 ?
Outgoing: inactive

----------
targetSystem: Lethal(3)malignant brain tumor-like protein 1 (Homo sapiens) (UniProt Q9Y468)
assayComment: qHTS Assay for the Inhibitors of L3MBTL1; also: nearly all actives have a fitted effect of over 60% in size
details: AlphaScreen L3MBTL1–H3K9me1 peptide binding; series mostly up to 57.1 µM
Hit rate of the full screen: of about 230,000 compounds, about 1,500 (0.65%) were called active. Another 3% or so got no clear call; they are omitted. The call rests on the fitted dose curve; in most records, active means well fitted inhibition curve with a large enough effect; inconclusive means small, poorly fitted or top-dose-only effect; inactive means no such curve, though single readings can be large or run the other way. The sample holds actives, similar compounds and a random draw of the others, so the mix is not that of the screen.
Valid outcomes are listed here; reply with one: active, inactive

Incoming: Assay outcome for CCc1nnc(NC(=O)/C=C/c2ccc(C)o2)s1 : what was it?
Outgoing: inactive

Incoming: Outcome? CCOC(=O)c1cn[nH]c1NC(=S)Nc1ccccc1
Outgoing: inactive

Incoming: I'd appreciate the recorded outcome for CN(C)c1ccc(-n2cccc2/C=C2/SC(=Nc3ccc(F)cc3)NC2=O)cc1 from this test.
Outgoing: inactive

Incoming: For this compound, state the assay outcome: CCOC(=O)N1CCN(C(=O)c2ccccc2SCC(=O)NCC2CCCCC2)CC1
Outgoing: inactive

Incoming: Returns: the outcome recorded for Cc1ccnc(SCC(=O)Nc2cccc(S(=O)(=O)N3CCOCC3)c2)n1 in this assay.
Outgoing: inactive

Incoming: GET /call?item= Cc1ccc(N=C2NC(=O)/C(=C/C=C/c3ccco3)S2)cc1C returns the recorded outcome of this test.
Outgoing: active

Incoming: GET /call?item= Cc1cccc(N=C2NC(=O)/C(=C/c3cn(C)c4ccccc34)S2)c1 returns the recorded outcome of this test.
Outgoing: inactive

Incoming: Each compound tested received a call. Report the one for CC(=O)C[C@H](O)CC(=O)[C@@H]1OC(=O)[C@@H](C)C/C=C\Cc2ccccc21 .
Outgoing: inactive

Incoming: # outcome recorded in this test, key = CCC(C)N(C(=O)CSc1nnnn1-c1ccccc1OC)C1CCS(=O)(=O)C1 (configuration not stated)
Outgoing: inactive

Incoming: Query: recorded result category for CCN(C(=O)Cc1nc(N)n[nH]1)C1(C(=O)Nc2ccccc2)CCCCC1 in this test
Outgoing: active

Incoming: Per the assay record, what outcome was assigned to CCN(CC)S(=O)(=O)c1ccc(N2CCOCC2)c(NC(=O)C(C)Oc2ccc(F)cc2)c1 (configuration not stated) ?
Outgoing: inactive

Incoming: Test call, this compound: CC[C@]12c3[nH]c4ccc(OC)cc4c3CCN1C(=O)C(CC(=O)NCCN1CCOCC1)C[C@@H]2C(=O)N1CCN(C(=O)C2CC2)CC1 (some centres not stated)
Outgoing: inactive

Incoming: Short answer needed: outcome of this test for CSC1=N/C(=C\C=C\c2cccs2)C(=O)S1 ?
Outgoing: active

Incoming: How was C=CCOc1cccc(C2NC(=O)c3ccccc3O2)c1 (configuration not stated) classified in this test?
Outgoing: inactive

Incoming: What did this assay record as the result for O=C1N/C(=C/c2cccs2)C(=O)N1Cc1ccc(F)cc1 ?
Outgoing: inactive

Incoming: Entry COc1ccc(-c2noc(CCC(=O)N3CCN(c4cccc(C)c4)CC3)n2)cc1 : call = ?
Outgoing: inactive

Incoming: Could you please tell me the result logged for CSC1=N/C(=C\c2ccc3c(c2)OCO3)C(=O)S1 in this assay?
Outgoing: inactive
